Origin of values: ChEMBL document CHEMBL1139344

Task for the reader: assign each of the following molecules its reported pKi.
- experimental_target: Adenosine receptor A2b (Homo sapiens, UniProt P29275)
- Sequence (P29275 whole entry): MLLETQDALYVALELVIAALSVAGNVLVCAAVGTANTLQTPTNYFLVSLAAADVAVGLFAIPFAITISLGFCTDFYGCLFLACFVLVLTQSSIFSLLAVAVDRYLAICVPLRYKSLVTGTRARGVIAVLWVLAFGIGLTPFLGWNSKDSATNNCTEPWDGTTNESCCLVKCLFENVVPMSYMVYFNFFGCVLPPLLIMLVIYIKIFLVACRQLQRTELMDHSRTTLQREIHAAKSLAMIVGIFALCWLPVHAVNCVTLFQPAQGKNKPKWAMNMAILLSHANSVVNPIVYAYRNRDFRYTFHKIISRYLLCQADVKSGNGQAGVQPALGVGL
- assay_summary: Displacement of radioligand from human recombinant adenosine A2B receptor at 21 degC after 60 mins by cell-based microplate scintillation counting
The quantity pKi is defined as the negative base-10 logarithm of the molar concentration.

Problem: Tell me the measured pKi of `Nc1nc(-c2ccco2)c2nnn(Cc3cccnc3)c2n1` , please.
Solution: 6.65

Problem: Sample `Nc1nc(-c2ccco2)c2nnn(Cc3ccc(N)c(O)c3)c2n1` — what was its pKi?
Solution: 7.08

Problem: Returns the measured pKi for the input molecule. Input: `Nc1nc(-c2ccco2)c2nnn(Cc3ccco3)c2n1`
Solution: 6.72

Problem: # query: pKi of entry `Nc1nc(-c2ccco2)c2nnn(Cc3ccccc3[N+](=O)[O-])c2n1`
Solution: 6.42

Problem: For `Nc1nc(-c2cc[nH]n2)c2nnn(Cc3ccccc3F)c2n1` , what is its reported pKi?
Solution: 5.75

Problem: Quick one: pKi of `Nc1nc(-c2ncco2)c2nnn(Cc3ccccc3F)c2n1` ?
Solution: 6.08

Problem: Fill blank: measured pKi of the molecule `Nc1nc(-c2ccco2)c2nnn(Cc3cc(F)ccc3F)c2n1` is ____.
Solution: 6.89

Problem: Any idea what its pKi is? The molecule is `Cc1cccc(Cn2nnc3c(-c4ccco4)nc(N)nc32)c1`
Solution: 6.60

Problem: Look up pKi: `Nc1nc(-c2ccco2)c2nnn(Cc3ccccc3N)c2n1`
Solution: 6.91

Problem: I have this molecule here, `Nc1ccc(Cn2nnc3c(-c4ccco4)nc(N)nc32)cc1` , and I need its recorded pKi.
Solution: 7.34

Problem: So what's the measured pKi for this one? `Nc1nc(-c2ccco2)c2nnn(Cc3cccc(F)c3F)c2n1`
Solution: 7.10

Problem: If you can, please state the reported pKi value of `COc1cccc(Cn2nnc3c(-c4ccco4)nc(N)nc32)c1` .
Solution: 6.19

Problem: Need pKi of `Nc1nc(-c2cncs2)c2nnn(Cc3ccccc3F)c2n1` , thanks.
Solution: 6.37

Problem: Which value of pKi has been reported for `Nc1nc(-c2ccco2)c2nnn(Cc3cnccn3)c2n1` in the records?
Solution: 5.94

Problem: Given the entry `Nc1ccc(Cn2nnc3c(-c4ccco4)nc(N)nc32)c(F)c1` , report its measured pKi.
Solution: 7.64

Problem: Reported pKi for `Nc1nc(-c2ccco2)c2nnn(CC3CCCCC3)c2n1` : what is it?
Solution: 6.20

Problem: Need pKi of `NC(=O)c1cccc(Cn2nnc3c(-c4ccco4)nc(N)nc32)c1` , thanks.
Solution: 6.88

Problem: Returns the measured pKi for the input molecule. Input: `Nc1nc(-c2nccs2)c2nnn(Cc3ccccc3F)c2n1`
Solution: 6.57

Problem: Item `Nc1nc(-c2ccco2)c2nnn(Cc3ccc(N)c(F)c3)c2n1` has what recorded pKi?
Solution: 7.37

Problem: Returns the measured pKi for the input molecule. Input: `CCc1cc(Cn2nnc3c(-c4ccco4)nc(N)nc32)ccc1N`
Solution: 6.93

Problem: Reported pKi for `Nc1nc(-c2ccco2)c2nnn(Cc3ccccc3)c2n1` : what is it?
Solution: 6.91

Problem: What pKi value was documented for this molecule, `N#Cc1cccc(Cn2nnc3c(-c4ccco4)nc(N)nc32)c1` ?
Solution: 6.20

Problem: // query pKi value for entry `NCc1ccc(Cn2nnc3c(-c4ccco4)nc(N)nc32)cc1`
Solution: 6.04

Problem: Request the reported pKi associated with `Nc1nc(-c2ccco2)c2nnn(Cc3ccsc3)c2n1`
Solution: 6.79
